Tested on: Plasmodium berghei
Experiment: Screen against P. berghei liver stage (PbLuc), transformed with Luciferase, at 10uM
Assay type: functional, HepG2
Conditions: tested at 10 uM
Screen size: about 69,000 compounds; about 8,600 (12%) showed an effect of 50% or more. The full list was thinned out, with strong results kept by preference.
readoutKind: INHIBITION (%)
One number for each entry, in %.

| molecule | readoutKind | readoutValue |
| --- | --- | --- |
| O=C1NCC[C@]12CN(Cc1nccs1)C[C@H]2c1ccccc1 | INHIBITION | 45.8 |
| CNC(=O)[C@@]12CCO[C@@H]1CCN(S(=O)(=O)c1ccc(C)cc1)C2 | INHIBITION | 21.8 |
| Cc1ccc(-c2cc(-c3c(C)nn(CCO)c3C)c(C#N)c(N)n2)cc1 | INHIBITION | 14.1 |
| COCC(=O)N1CCC2(C1)c1ccccc1S(=O)(=O)N2CCC(C)C (stereo not given) | INHIBITION | -14.2 |
| O=C1CC2(CCN(Cc3ccoc3)C2)CN1c1ccc2c(c1)OCO2 (stereo not given) | INHIBITION | 60.3 |
| OC1COCCN(Cc2cc(-c3ccccc3OC(F)(F)F)no2)C1 (stereo not given) | INHIBITION | -26.1 |
| CC(=O)N1CCC(c2ccnc(Nc3cc(C(F)(F)F)ccn3)n2)C1 (stereo not given) | INHIBITION | 2.55 |
| Cc1c(C(=O)N(C)c2ccccc2)cccc1N(C)S(C)(=O)=O | INHIBITION | 22.07 |
| C[C@@H]1CN(Cc2nc(C(N)=O)no2)CC[C@@]1(O)C1CC1 | INHIBITION | 6.26 |
| Cc1nn(C)c2c(NCCn3cccn3)ncnc12 | INHIBITION | -37.2 |

I need INHIBITION for every entry listed below, if you could help.
1. Cc1nn(C)c2c(NCCCn3cccn3)nc(C(C)C)nc12
2. CCc1nc(NCCn2cccn2)c2c(n1)c(C)nn2C
3. CS(=O)(=O)N1CCCC(Cc2cnc(Br)cn2)CC1 (stereo not given)

[62.3, 19.3, 37.8]

I need INHIBITION for every entry listed below, if you could help.
1. NC1CCCCN(Cc2cc(-c3ccccc3OC(F)(F)F)no2)C1 (stereo not given)
2. O=C(Cn1ccc2ccc(Cl)cc21)NCc1ccc(C(=O)O)cc1
3. CS(=O)(=O)N1C[C@H](C(=O)Nc2cccnc2)[C@@H]2CCO[C@@H]2C1
4. COc1cc(-c2cc(-c3ccn(C)c3)nc(N)c2C#N)cc(OC)c1O
5. CCn1cc(-c2cc(-c3ccn(C)c3)nc(N)c2C#N)cc1C#N

1. 79.7
2. -6.42
3. -7.7
4. 71.2
5. 81.1
